biological target: UniProt P04626; test: Competitive binding affinity to human ERBB2 in presence of immobilized ligand
Sequence (P04626 whole entry): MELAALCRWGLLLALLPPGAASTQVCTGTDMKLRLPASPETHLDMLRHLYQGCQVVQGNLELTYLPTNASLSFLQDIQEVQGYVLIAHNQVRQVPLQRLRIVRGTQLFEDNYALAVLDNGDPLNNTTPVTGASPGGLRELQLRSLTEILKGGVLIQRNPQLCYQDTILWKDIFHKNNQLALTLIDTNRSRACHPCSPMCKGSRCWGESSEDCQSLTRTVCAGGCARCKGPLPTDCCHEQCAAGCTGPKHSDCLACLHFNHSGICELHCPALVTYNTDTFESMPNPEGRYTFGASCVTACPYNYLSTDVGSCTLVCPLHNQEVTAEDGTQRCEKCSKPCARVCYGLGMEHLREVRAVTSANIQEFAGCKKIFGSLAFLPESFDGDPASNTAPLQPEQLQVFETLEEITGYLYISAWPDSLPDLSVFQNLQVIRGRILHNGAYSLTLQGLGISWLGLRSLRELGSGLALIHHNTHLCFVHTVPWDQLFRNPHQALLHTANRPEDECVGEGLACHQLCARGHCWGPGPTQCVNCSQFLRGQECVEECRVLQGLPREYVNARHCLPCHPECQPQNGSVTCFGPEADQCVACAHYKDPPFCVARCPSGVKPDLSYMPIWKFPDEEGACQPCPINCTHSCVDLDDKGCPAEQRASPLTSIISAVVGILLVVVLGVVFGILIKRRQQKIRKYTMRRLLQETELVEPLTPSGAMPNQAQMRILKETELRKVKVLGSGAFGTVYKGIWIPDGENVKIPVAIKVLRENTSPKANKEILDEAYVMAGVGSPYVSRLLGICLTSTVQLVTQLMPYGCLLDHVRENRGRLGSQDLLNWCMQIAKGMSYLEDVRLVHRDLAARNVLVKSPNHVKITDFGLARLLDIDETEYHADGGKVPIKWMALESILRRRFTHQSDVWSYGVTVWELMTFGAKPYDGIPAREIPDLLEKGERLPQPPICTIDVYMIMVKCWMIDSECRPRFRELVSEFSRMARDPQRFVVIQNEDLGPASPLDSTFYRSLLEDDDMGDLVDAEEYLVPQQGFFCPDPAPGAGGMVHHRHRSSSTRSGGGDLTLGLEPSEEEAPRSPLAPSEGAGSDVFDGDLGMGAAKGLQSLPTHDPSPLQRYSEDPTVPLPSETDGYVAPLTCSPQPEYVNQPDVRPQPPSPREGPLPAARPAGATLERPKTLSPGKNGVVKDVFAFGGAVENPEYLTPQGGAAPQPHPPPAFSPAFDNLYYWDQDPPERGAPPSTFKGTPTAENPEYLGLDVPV
test_readout: pKd
In simple prose, pKd is minus the logarithm base ten of a concentration in moles per litre.

Item: C=CC(=O)Nc1cccc(-n2c(=O)cc(C)c3cnc(Nc4ccc(OCCN(C)C)cc4OC)nc32)c1 Test system: UniProt P04626 Read-out: pKd Value: ?
6.66

====

assay: AUC (0 to infinity) in Sprague-Dawley rat at 10 mg/kg, po; assay type: ADME, organism-based; set-up: dose 10 mg/kg, route oral, time infinity; conditions: Sprague-Dawley, in vivo
test_readout: AUC(0-inf) (µM·h)
Use µM·h as the unit, but write only the number.

Example results:
In [3]: df
Out[3]:
                                chem_smiles  test_readout  quantity_unit  test_result
0  C=CC(=O)Nc1cccc(-n2c(=O)cc(C)c3cnc(Nc4ccc(OCCN(C)C)cc4OC)nc32)c1    AUC(0-inf)           µM·h         0.66
1  C=CC(=O)Nc1cccc(-n2c(=O)cc(C)c3cnc(Nc4ccc(N5CCN(C)CC5)cc4OC)nc32)c1    AUC(0-inf)           µM·h         0.18

Please turn your attention to the following entry.
Requested read-out: AUC(0-inf). Entry: C=CC(=O)Nc1cccc(-n2c(=O)ccc3cnc(Nc4ccc(N5CCN(C)CC5)cc4OC)nc32)c1
0.18
